Test system: SW-620 colon
test.method.notes: NCI tumour cell line growth inhibition, 48 h; in the data active means GI50 below about 0.43 µM; inactive means the rest
Select the matching outcome among active, inactive

{"entry.smiles": "C=C1C(=O)O[C@H]2[C@H]1CC/C(COC(=O)NCc1ccc(Cn3c(=O)sn(CCCl)c3=O)cc1)=C\\CC[C@@]1(C)O[C@@H]21", "assigned.category": "inactive"}
{"entry.smiles": "COc1ccc(C(=O)c2cc(OC)c(OC)c(OC)c2)cc1OC(=O)CCl", "assigned.category": "active"}
{"entry.smiles": "COc1c(C)c2c(c(O)c1C/C=C(\\C)CCC(=O)O)C(=O)OC2", "assigned.category": "active"}
{"entry.smiles": "COc1cc(/C=C/C(=O)c2cccc(Nc3nc(Nc4ccccc4)nc(Nc4ccccc4)n3)c2)cc(OC)c1OC", "assigned.category": "inactive"}
{"entry.smiles": "C=C(C)C(=O)Nc1ccc(NC(C)C)cc1", "assigned.category": "inactive"}
{"entry.smiles": "COc1ccc2cc(C(=O)/C=C/c3ccc(Cl)cc3Cl)ccc2c1", "assigned.category": "inactive"}
{"entry.smiles": "O=C1Nc2ccccc2/C1=C/C(=O)c1coc2c1C(=O)c1ccccc1C2=O", "assigned.category": "inactive"}
{"entry.smiles": "COc1cc(CSc2nc3ccc(C)cc3c(=O)n2-c2ccccc2)cc(OC)c1OC", "assigned.category": "inactive"}

Turning now to a further record.
## Input Call for entry `CC(C)(C)OC(=O)N1CCN(CCn2cc(C(F)(F)F)c3c(Cl)ncnc32)CC1` :
## Output inactive
